Form field: pIC50 (one value per entry).
- experimental_target: KRas G12D (Homo sapiens, UniProt P01116, G12D)
- experimental_details: KRas G12D Binding Assay (TR-FRET displacement of labeled tracer)
- measurement_parameters: TR-FRET displacement of Cy5 labelled tracer, biotinylated GDP-loaded KRAS G12D (aa 1:169), 60 minute incubation at 22° C.
- Sequence (P01116 1-169 isoform P01116-2 G12D): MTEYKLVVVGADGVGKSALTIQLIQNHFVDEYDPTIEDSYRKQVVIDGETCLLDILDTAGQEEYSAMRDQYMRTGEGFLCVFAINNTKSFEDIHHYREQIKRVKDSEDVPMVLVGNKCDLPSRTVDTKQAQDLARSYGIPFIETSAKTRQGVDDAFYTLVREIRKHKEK
Please express pIC50 as -log10 of the molar concentration.

{"molecule": "CN1CCC[C@H]1COc1nc2c(c(N3C[C@H]4C[C@@H](C#N)[C@@H](C3)N4)n1)CCN(c1cccc3cccc(Cl)c13)C2 [Example 92]", "pIC50": 5.26}
{"molecule": "CCc1cccc2cccc(N3CCc4c(nc(OCC56CCCN5C(COC(=O)N(CC)CC)CC6)nc4N4C[C@H]5CC[C@@H](C4)N5)C3)c12 (mixture of isomers) [Example 66]", "pIC50": 8.34}
{"molecule": "COc1nc2c(c(N3C[C@H]4CC[C@@H](C3)N4)n1)CCN(c1cccc3cccc(C)c13)C2 [Example 22]", "pIC50": 5.10}
{"molecule": "FC1(F)CCc2c(N3CCc4c(nc(OCC56CCCN5CCC6)nc4N4C[C@H]5CC[C@@H](C4)N5)C3)cccc21 [Example 101]", "pIC50": 5.60}
{"molecule": "F[C@H]1CN2CCCC2(COc2nc3c(c(N4CC5CCC(C4)N5)n2)CCN(c2cccc4cccc(C(F)(F)F)c24)C3)C1 (mixture of isomers) [Example 51]", "pIC50": 7.77}

Attention now turns to another entry.
# input pIC50 for Cc1ccc2cccc(N3CCc4c(nc(OC[C@@H]5CCCN5C)nc4N4C[C@H]5CC[C@@H](C4)N5)C3)c2c1 [Example 110] ?
# output 5.50

----------
- experimental_target: KRas G12D (Homo sapiens, UniProt P01116, G12D)
- experimental_details: KRas G12D Surface Plasmon Resonance (SPR) Binding Assay
- measurement_parameters: Biacore T200, biotinylated Avidin-tagged KRAS protein on SA chip, 20 C, 1:1 binding model
- Sequence (P01116 1-188 isoform P01116-2 G12D): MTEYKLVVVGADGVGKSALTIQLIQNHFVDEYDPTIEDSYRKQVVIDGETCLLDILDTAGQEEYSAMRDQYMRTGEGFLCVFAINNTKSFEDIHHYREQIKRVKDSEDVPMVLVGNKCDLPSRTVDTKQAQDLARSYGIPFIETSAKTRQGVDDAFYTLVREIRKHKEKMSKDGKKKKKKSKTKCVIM
quantity: pKd
Please express pKd as -log10 of the molar concentration.

# input pKd for `CN1CCC[C@H]1COc1nc2c(c(N3C[C@H]4CC[C@@H](C3)N4)n1)CCN(c1c(F)c(O)c(F)c3ccccc13)C2` ?
# output 6.07

----------
- experimental_target: KRas G12D (Homo sapiens, UniProt P01116, G12D)
- experimental_details: KRas G12D Binding Assay (TR-FRET displacement of labeled tracer)
- measurement_parameters: TR-FRET displacement of Cy5 labelled tracer, biotinylated GDP-loaded KRAS G12D (aa 1:169), 60 minute incubation at 22° C.
quantity: pIC50
Please express pIC50 as -log10 of the molar concentration.

{"compound": "Oc1cc(N2CCc3c(nc(OCC45CCCN4CCC5)nc3N3C[C@H]4CC[C@@H](C3)N4)C2)c2ccccc2c1", "pIC50": 8.42}
{"compound": "CN1CCC[C@H]1COc1nc2c(c(N3C[C@H]4CC[C@@H](C3)N4)n1)CCN(c1cc(O)cc3ccccc13)C2", "pIC50": 7.31}
{"compound": "CN1CCC[C@H]1COc1nc2c(c(N3C[C@H]4CC[C@@H](C3)N4)n1)CCN(c1cccc3c1CCCC3)C2", "pIC50": 5.75}
{"compound": "CCc1cccc2cc(O)cc(N3CCc4c(nc(OCC56CCCN5CCC6)nc4N4C[C@H]5CC[C@@H](C4)N5)C3)c12", "pIC50": 8.96}
{"compound": "CCc1c(F)ccc2cccc(N3CCc4c(nc(OCC56CCCN5CCC6)nc4N4C[C@H]5CC[C@@H](C4)N5)C3)c12", "pIC50": 8.74}

# input pIC50 for `CN1CCC[C@H]1COc1nc2c(c(N3C[C@H]4CC[C@@H](C3)N4)n1)CCN(c1cccc3c(Cl)cccc13)C2` ?
# output 5.10

# input pIC50 for `Oc1cc(N2CCc3c(nc(OCC45CCCN4CCC5)nc3N3C[C@H]4CC[C@@H](C3)N4)C2)c2c(Cl)c(F)ccc2c1` ?
# output 9.30

# input pIC50 for `CCc1cccc2cccc(N3CCc4c(nc(OC[C@@]56CCCN5C[C@H](F)C6)nc4[C@H]4C[C@H]5CC[C@@H](C4)N5)C3)c12` ?
# output 8.06

# input pIC50 for `CCc1c(F)ccc2cccc(N3CCc4c(nc(OC[C@]56CCCN5[C@@H](COC(=O)N5CCOCC5)CC6)nc4N4C[C@H]5CC[C@@H](C4)N5)C3)c12` ?
# output 9.15

# input pIC50 for `CN1CCC[C@H]1COc1nc2c(c(N3C[C@H]4CC[C@@H](C3)N4)n1)CCN(c1cc(O)c(Cl)c3ccccc13)C2` ?
# output 5.87

# input pIC50 for CCc1cccc2cccc(N3CCc4c(nc(OCC56CCCN5C(COC(=O)N5CC[C@@H](OC)C5)CC6)nc4N4C[C@H]5CC[C@@H](C4)N5)C3)c12 (stereo partly shown) ?
# output 8.14

# input pIC50 for `Clc1cccc2cncc(N3CCc4c(nc(OCC56CCCN5CCC6)nc4N4C[C@H]5CC[C@@H](C4)N5)C3)c12` ?
# output 7.77
